- system_name: Fructose-bisphosphate aldolase (Mycobacterium tuberculosis (strain ATCC 25618 / H37Rv))
- assay_notes: Mtb FBA enzyme inhibitors, primary screen, biochemical, fluorescence, strain H37Rv (AID 588726);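 note: 0% = vehicle and 100% = reference inhibitor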
- condition_details: purified M. tuberculosis FBA, fluorescence read-out, at 1 µM
Screen size: about 360,000 compounds; about 8,200 (2.3%) were called active. Cut-off read from the data, not from the text of the source: active = inhibition above about 27%; inactive = the rest. Only a selection was taken, and actives are over-represented in it overall.
Classes used: active, inactive

> print(dat)
                                   compound     class
1  Cc1c(OC(C)C(=O)N[C@@H](Cc2ccccc2)C(=O)O)ccc2c3c(c(=O)oc12)CCCC3 (stereo partly drawn)    active
2  Cc1c(OC(C)C(=O)NCC2CCC(C(=O)O)CC2)ccc2c1oc(=O)c1ccccc12 (stereo not drawn)  inactive
3  Cc1oc2c(C)c3oc(=O)c(CC(=O)N[C@@H](CC(C)C)C(=O)N[C@@H](Cc4ccccc4)C(=O)O)c(C)c3cc2c1C  inactive

----------
- system_name: Fructose-bisphosphate aldolase (Mycobacterium tuberculosis (strain ATCC 25618 / H37Rv)) (UniProt P9WQA3)
- Sequence (P9WQA3 whole entry, looked up): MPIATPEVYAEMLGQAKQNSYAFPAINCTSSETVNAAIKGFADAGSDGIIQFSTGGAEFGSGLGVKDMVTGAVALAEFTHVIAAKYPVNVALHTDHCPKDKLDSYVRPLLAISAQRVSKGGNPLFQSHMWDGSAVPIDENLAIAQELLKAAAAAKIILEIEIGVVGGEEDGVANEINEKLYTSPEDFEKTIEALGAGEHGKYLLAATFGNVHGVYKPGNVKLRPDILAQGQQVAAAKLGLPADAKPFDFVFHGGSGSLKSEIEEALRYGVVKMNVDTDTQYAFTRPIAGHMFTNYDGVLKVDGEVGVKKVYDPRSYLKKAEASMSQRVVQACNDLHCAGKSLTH
- assay_notes: Mtb FBA enzyme inhibitors, primary screen, biochemical, fluorescence, strain H37Rv (AID 588726);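 note: 0% = vehicle and 100% = reference inhibitor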
- condition_details: purified M. tuberculosis FBA, fluorescence read-out, at 1 µM, active compounds read high
The campaign covered roughly 360,000 compounds. About 8,200 (2.3%) were called active. The full list was thinned out, with actives kept by preference.
outcome_measure: inhibition (%)

> print(dat)
                                    molecule  outcome.measure  readout.units  assay.value
 1       O=C1CCC(=O)N1CCOP1(=O)COc2ccccc2OC1       inhibition              %         3.44
 2    N#Cc1c(-c2ccccc2)c(-c2ccccc2)n[nH]c1=O       inhibition              %        -6.25
 3  CCc1n[nH]c(=S)n1/N=C/c1c[nH]c2ccc(Br)cc12       inhibition              %         4.89
 4  O=C(Nn1c(-c2ccc(Cl)cc2)nc2ccccc2c1=O)c1cccnc1Cl       inhibition              %           15
 5  Cc1ccc(-c2nc3ccccc3c(=O)n2-c2ccc(Br)cn2)cc1       inhibition              %         27.5
 6   CCCCc1cc(=O)oc2cc(C)cc(OCc3nn[nH]n3)c12       inhibition              %          183
 7  O=C(O)c1ccc(-n2nc(-c3ccccc3)c3ccccc3c2=O)cc1       inhibition              %         2.23
 8  OCC(O)CN(c1ccccc1)c1ccccc1 (stereo unspecified)       inhibition              %         5.53
 9  COc1ccc([C@H]2N[C@]3(CCCN(Cc4ccco4)C3=O)[C@H]3C(=O)N(C)C(=O)[C@@H]23)cc1       inhibition              %        -1.27
10                 O=C(O)c1n[nH]nc1-c1ccccc1       inhibition              %          113
11              Cn1c(CCc2ccccc2)nnc1SCC(N)=O       inhibition              %        -0.79
